target: hVAChT A330V (Homo sapiens, UniProt Q16572, A330V); assay: ACh equilibrium binding by competition against [3H]vesamicol
reported-endpoint: Kd
Number first, unit second: that is the form wanted.

# lookup: Kd of CC(=O)OCC[N+](C)(C)C [ACh, acetylcholine]
12 mM

Origin of measurements: paper PMC2962730
